- assayed-system: HRgpA-6H (Porphyromonas gingivalis) (UniProt P28784)
- assay-summary: ELISA, coated HRgpA-6H
metric-name: Ratio OD(Variant)/OD(WT)
Answers are plain numbers.

These solved cases illustrate the format of a correct answer.
1) KB001 mouse Fab VH Y106N (Fab, V domains shown) VH: EVQLKQSGPGLVAPSQSLSITCTVSGFSLSIYSVHWVRQPPGKGLEWLGMIWGGGSSDYNSALKSRLSISKDNSKSQVFLKMNSLQTDDTAMYYCARNGNFYAMDNWGQGTSVTVSS VL: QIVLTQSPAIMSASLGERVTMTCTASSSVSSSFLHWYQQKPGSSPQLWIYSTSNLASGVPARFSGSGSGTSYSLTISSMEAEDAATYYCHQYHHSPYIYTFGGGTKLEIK ... 1.03
2) KB001 mouse Fab VL T24H (Fab, V domains shown) VH: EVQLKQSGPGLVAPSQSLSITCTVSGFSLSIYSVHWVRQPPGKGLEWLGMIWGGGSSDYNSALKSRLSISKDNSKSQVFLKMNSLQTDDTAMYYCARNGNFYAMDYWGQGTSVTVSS VL: QIVLTQSPAIMSASLGERVTMTCHASSSVSSSFLHWYQQKPGSSPQLWIYSTSNLASGVPARFSGSGSGTSYSLTISSMEAEDAATYYCHQYHHSPYIYTFGGGTKLEIK ... 1.03

Next, consider the following binder.
Query string: Given the entry KB001 mouse Fab VH Y59F (Fab, V domains shown) VH: EVQLKQSGPGLVAPSQSLSITCTVSGFSLSIYSVHWVRQPPGKGLEWLGMIWGGGSSDFNSALKSRLSISKDNSKSQVFLKMNSLQTDDTAMYYCARNGNFYAMDYWGQGTSVTVSS VL: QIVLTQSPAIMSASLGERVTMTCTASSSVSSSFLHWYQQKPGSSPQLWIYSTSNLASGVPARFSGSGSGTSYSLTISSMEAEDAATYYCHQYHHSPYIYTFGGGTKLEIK , report its measured Ratio OD(Variant)/OD(WT).
Result string: 0.845

Every entry's value here was drawn from patent US20240400654A1.
